Target: Alkaline phosphatase, tissue-nonspecific isozyme (Homo sapiens, UniProt P05186)
Sequence (P05186 whole entry): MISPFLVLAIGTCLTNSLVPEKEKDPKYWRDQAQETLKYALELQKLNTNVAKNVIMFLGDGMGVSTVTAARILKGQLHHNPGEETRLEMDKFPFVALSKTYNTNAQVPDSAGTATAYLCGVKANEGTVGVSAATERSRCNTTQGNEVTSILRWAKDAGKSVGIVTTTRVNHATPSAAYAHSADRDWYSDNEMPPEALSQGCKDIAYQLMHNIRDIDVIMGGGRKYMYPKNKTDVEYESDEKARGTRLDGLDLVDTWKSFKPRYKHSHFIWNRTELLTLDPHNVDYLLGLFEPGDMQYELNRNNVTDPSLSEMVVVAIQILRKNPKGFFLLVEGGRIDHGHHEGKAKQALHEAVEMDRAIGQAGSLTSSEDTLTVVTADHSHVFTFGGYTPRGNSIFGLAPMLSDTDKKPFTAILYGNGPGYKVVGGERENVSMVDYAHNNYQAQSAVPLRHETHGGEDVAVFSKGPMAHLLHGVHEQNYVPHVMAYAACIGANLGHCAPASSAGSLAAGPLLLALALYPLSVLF
Experiment: TNAP enzyme inhibition by screening hits, dose response, selectivity assay for mouse IAP inhibitor project, biochemical, human TNAP, uHTS hits (AID 488906)
Assay type: functional
Active and inactive are the calls of the source.
Possible outcomes: class 1 for active, class 0 for inactive

smiles representation	assigned label
CCN(c1ccccc1)S(=O)(=O)c1ccc2[nH]c(=O)[nH]c2c1	class 1
C/N=c1\scc(-c2ccco2)n1/N=C/c1ccc(O)c(O)c1	class 1
CC(C)c1ccc(NC(=O)NC2CCN(CC(=O)Nc3cccc4ccccc34)CC2)cc1	class 1
O=c1oc2cc(O)ccc2s1	class 0
CCOc1cc(/C=C2\CCC/C(=C\c3cc(Cl)c(O)c(OCC)c3)C2=O)cc(Cl)c1O	class 0

----------
Molecular target: Induced myeloid leukemia cell differentiation protein Mcl-1 (Homo sapiens, UniProt Q07820)
Sequence (Q07820 whole entry): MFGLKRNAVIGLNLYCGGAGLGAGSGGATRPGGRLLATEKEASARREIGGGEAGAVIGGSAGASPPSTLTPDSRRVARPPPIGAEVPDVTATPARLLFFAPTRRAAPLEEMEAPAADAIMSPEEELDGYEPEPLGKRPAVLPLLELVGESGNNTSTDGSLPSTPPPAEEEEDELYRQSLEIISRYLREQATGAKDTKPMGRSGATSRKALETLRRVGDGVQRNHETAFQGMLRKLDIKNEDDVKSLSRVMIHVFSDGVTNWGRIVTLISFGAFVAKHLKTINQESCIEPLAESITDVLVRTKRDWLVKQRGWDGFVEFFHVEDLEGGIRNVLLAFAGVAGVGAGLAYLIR
Type: functional
Activity calls are given as the source filed them.

smiles representation	measured target	IC50
Cc1ccc2[nH]c(O)c(N=Nc3nc4ccccc4s3)c2c1	Induced myeloid leukemia cell differentiation protein Mcl-1 (Homo sapiens, UniProt Q07820)	2.11 µM (active)
CCN(CC)S(=O)(=O)c1ccc(N2CCOCC2)c(NC(=O)c2c3c(nc4ccccc24)CCC3)c1	Induced myeloid leukemia cell differentiation protein Mcl-1 (Homo sapiens, UniProt Q07820)	5.07 µM (active)
COc1cccc(C(=O)Nc2ccc3c(c2)C(=O)c2ccccc2C3=O)c1	Induced myeloid leukemia cell differentiation protein Mcl-1 (Homo sapiens, UniProt Q07820)	1.82 µM (active)
COc1cc(/C=N/Nc2n[nH]c3c4ccccc4nc-3n2)ccc1O	Induced myeloid leukemia cell differentiation protein Mcl-1 (Homo sapiens, UniProt Q07820)	3.9 µM (active)
CN(C)S(=O)(=O)c1cccc(-c2nn(-c3ccccc3)cc2/C=C2\SC(=S)N(CC(=O)O)C2=O)c1	Induced myeloid leukemia cell differentiation protein Mcl-1 (Homo sapiens, UniProt Q07820)	4.8 µM (active)

----------
Molecular target: Estrogen receptor (Homo sapiens);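 note: potency for inhibiting coactivator peptide recruitment to the receptor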
Sequence (P03372 whole entry): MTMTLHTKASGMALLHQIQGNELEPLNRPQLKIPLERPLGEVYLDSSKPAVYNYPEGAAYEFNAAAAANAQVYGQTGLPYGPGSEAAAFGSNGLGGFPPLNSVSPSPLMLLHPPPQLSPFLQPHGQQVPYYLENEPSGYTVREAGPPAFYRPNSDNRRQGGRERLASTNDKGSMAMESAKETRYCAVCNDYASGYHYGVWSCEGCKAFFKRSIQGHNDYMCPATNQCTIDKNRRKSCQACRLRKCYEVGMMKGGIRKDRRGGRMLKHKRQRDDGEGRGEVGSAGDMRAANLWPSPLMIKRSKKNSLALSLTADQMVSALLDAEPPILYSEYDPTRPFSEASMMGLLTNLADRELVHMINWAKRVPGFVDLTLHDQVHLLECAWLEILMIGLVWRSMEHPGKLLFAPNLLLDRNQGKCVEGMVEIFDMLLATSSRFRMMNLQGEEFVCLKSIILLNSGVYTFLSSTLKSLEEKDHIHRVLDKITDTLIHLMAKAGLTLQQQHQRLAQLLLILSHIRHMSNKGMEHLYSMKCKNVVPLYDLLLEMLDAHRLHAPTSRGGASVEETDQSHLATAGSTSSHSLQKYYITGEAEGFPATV
Calls of active or inactive are those of the source.
# IC50 annotations

compound	IC50
O=C(CSc1n[nH]c(-c2ccc(S(=O)(=O)N3CCCCC3)cc2)n1)Nc1nccs1	47.2 µM (not active)
N#Cc1c(C(F)(F)F)cc(-c2ccccc2)nc1SCc1nc(N)nc(N2CCOCC2)n1	> 50 µM (not active)
O=C(Nc1ccc(N2CCCC2)cc1)C(c1ccccc1)c1ccccc1	7.09 µM (active)
Nc1nc(N2C(=O)C3CC=CCC3C2=O)nn1-c1ccccc1 (centres undefined)	> 50 µM (not active)

----------
Biological target: Paired box protein Pax-8 (Homo sapiens, UniProt Q06710)
Sequence (Q06710 whole entry): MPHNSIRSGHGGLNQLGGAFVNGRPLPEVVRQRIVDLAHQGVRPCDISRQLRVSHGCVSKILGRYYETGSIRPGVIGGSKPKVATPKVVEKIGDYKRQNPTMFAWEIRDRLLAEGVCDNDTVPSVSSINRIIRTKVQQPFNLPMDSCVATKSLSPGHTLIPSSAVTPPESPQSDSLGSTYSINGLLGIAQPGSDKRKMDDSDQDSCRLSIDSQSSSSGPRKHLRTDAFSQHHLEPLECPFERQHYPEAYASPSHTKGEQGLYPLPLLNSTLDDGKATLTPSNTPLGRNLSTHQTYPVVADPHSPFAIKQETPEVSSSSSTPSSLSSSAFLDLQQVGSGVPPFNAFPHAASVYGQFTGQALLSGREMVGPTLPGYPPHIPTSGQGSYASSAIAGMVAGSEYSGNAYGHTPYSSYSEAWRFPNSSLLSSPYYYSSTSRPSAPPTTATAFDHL
Experiment: inhibitors of PAX8-driven TPO luciferase reporter, dose response, RMG-I cells, cherry-pick (AID 687027);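 note: luciferase reporter driven by Pax8 target thyroperoxidase promoter measured by SteadyGlo luminescence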
Format: functional, cell-based
Calls of active or inactive are those of the source.
readout: AC50

smiles representation	readout	assay result
O=C(CCCN1C(=O)/C(=C/c2cccc(Br)c2)SC1=S)Nc1ccccn1	AC50	5.71 µM (active)
COc1ccc(-c2ccc3c(c2)[C@@H]2[C@@H](CCN2S(=O)(=O)c2ccc(OC)cc2)[C@@H](CO)N3C)cc1	AC50	12.3 µM (active)
C[C@@H]1CN([C@H](C)CO)C(=O)c2cc(NC(=O)Nc3ccc(C(F)(F)F)cc3)ccc2O[C@@H](C)CCCCO[C@H]1CN(C)C(=O)c1ccccc1	AC50	12.1 µM (active)
Cc1cccc(-c2ccc([C@H]3[C@@H]4CN(C(=O)Nc5ccc(C(F)(F)F)cc5)C[C@H]3N4)cc2)c1	AC50	8.8 µM (active)
